pIC50: −log10 of the molar value.
Endpoint summary: pIC50, system: Epidermal growth factor receptor (Homo sapiens, UniProt P00533), multiple sources combined.

## Input May I ask what pIC50 has been recorded for C=CC(=O)N1CCc2ccc(-c3c(-c4ccc(CN(C)C)cc4)[nH]c4nccc(Cl)c34)cc21 ?
## Output ≥ 7.00

## Input Which pIC50 reading was recorded for the compound CC(C)(O)Cn1/c(=N/C(=O)c2ccnc(-c3cccc(-c4cccc(O)c4C=O)c3)c2)[nH]c2ccccc21 ?
## Output 6.28

## Input Name the recorded pIC50 for CN(C)C/C=C/C(=O)Nc1cccc(-n2nc(-c3ccc(Cl)cc3)c3c(N)ncnc32)c1 .
## Output > 7.00

## Input Name the recorded pIC50 for CC(=O)N1CCN(c2ccc(Nc3nccc(-c4sc(C(C)C)nc4-c4cccc(NS(=O)(=O)c5ccccc5F)c4)n3)cn2)CC1 .
## Output > 7.00

## Input I would be grateful if you could share the reported pIC50 for COc1ccccc1C(=O)NCc1ccc(-c2nn(C3CCC(OC(=O)c4ccc(C)cc4)CC3)c3ncnc(N)c23)cc1 (stereo not shown) .
## Output 6.00 to 7.00

## Input Fill in the blank: the reported pIC50 of C=CC(=O)N1CCC[C@@H](n2nc(-c3ccc(Oc4ccncc4)cc3)c3c(N)nccc32)C1 is ____.
## Output 7.60

## Input Which pIC50 value belongs to COCCN1CCC(Nc2ccc3c(c2)/C(=C(\c2cc(F)cc(F)c2)c2nc4ccccc4[nH]2)C(=O)N3)CC1 ?
## Output 6.30 to 7.30
